target: Sodium/glucose cotransporter 2 (Homo sapiens); assay: Inhibition of human SGLT2 expressed in COS7 cells assessed as reduction in [14C]-AMG uptake; assay type: cell-based
Sequence (P31639 whole entry): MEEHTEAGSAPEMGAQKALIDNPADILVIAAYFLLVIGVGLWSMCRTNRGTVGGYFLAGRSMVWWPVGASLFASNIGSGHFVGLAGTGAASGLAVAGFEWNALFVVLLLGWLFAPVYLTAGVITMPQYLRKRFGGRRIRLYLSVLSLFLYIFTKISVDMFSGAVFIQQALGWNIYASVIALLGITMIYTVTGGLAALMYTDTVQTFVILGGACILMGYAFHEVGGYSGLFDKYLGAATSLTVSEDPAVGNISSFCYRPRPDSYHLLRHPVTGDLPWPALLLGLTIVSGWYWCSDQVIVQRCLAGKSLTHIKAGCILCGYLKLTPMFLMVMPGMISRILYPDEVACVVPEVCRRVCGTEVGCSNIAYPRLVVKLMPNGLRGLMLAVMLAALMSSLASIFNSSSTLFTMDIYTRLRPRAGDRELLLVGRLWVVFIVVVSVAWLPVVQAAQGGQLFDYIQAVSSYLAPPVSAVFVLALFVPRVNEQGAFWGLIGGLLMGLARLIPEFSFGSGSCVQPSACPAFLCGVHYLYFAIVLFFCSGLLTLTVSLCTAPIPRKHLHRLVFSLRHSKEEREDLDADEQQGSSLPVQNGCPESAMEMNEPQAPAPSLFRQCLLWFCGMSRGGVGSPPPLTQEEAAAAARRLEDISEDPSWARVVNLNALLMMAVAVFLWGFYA
pIC50: −log10 of the molar value.
METRIC: pIC50

>>> df
                                    compound  metric  rel  assay_result
 0  Cc1[nH]nc(O[C@@H]2O[C@H](CO)[C@@H](O)[C@H](O)[C@H]2O)c1Cc1ccc(OC(C)C)cc1   pIC50    =          8.00
 1  Cc1c(Cc2ccc(OC(C)C)cc2)c(O[C@@H]2O[C@H](CO)[C@@H](O)[C@H](O)[C@H]2O)nn1C   pIC50    =          6.96
 2  Cc1nn(C)c(O[C@@H]2O[C@H](CO)[C@@H](O)[C@H](O)[C@H]2O)c1Cc1ccc(OC(C)C)cc1   pIC50    <          6.00
 3  Cc1cccc(Cc2c(O[C@@H]3O[C@H](CO)[C@@H](O)[C@H](O)[C@H]3O)n[nH]c2C)c1   pIC50    =          6.12
 4  CSc1ccc(Cc2c(O[C@@H]3O[C@H](CO)[C@@H](O)[C@H](O)[C@H]3O)n[nH]c2C)cc1   pIC50    =          8.31
 5  Cc1[nH]nc(O[C@@H]2O[C@H](CO)[C@@H](O)[C@H](O)[C@H]2O)c1CCc1ccccc1   pIC50    =          5.28
 6  CCOc1ccc(Cc2c(O[C@@H]3O[C@H](CO)[C@@H](O)[C@H](O)[C@H]3O)n[nH]c2C)cc1   pIC50    =          7.97
 7  Cc1[nH]nc(O[C@@H]2O[C@H](CO)[C@@H](O)[C@H](O)[C@H]2O)c1Cc1ccccc1   pIC50    =          6.74
 8  CCCn1nc(O[C@@H]2O[C@H](CO)[C@@H](O)[C@H](O)[C@H]2O)c(Cc2ccc(OC(C)C)cc2)c1C   pIC50    =          7.18
 9  Cc1[nH]nc(O[C@@H]2O[C@H](CO)[C@@H](O)[C@H](O)[C@H]2O)c1CCCc1ccccc1   pIC50    =          5.40
10  CCCOc1ccc(Cc2c(O[C@@H]3O[C@H](CO)[C@@H](O)[C@H](O)[C@H]3O)n[nH]c2C)cc1   pIC50    =          7.81
11  CCCc1ccc(Cc2c(O[C@@H]3O[C@H](CO)[C@@H](O)[C@H](O)[C@H]3O)n[nH]c2C)cc1   pIC50    =          8.06
12  COc1ccc(Cc2c(O[C@@H]3O[C@H](CO)[C@@H](O)[C@H](O)[C@H]3O)n[nH]c2C)cc1   pIC50    =          7.91
13  Cc1c(Cc2ccc(OC(C)C)cc2)c(O[C@@H]2O[C@H](CO)[C@@H](O)[C@H](O)[C@H]2O)nn1C(C)C   pIC50    =          7.74
14  CCn1nc(O[C@@H]2O[C@H](CO)[C@@H](O)[C@H](O)[C@H]2O)c(Cc2ccc(OC(C)C)cc2)c1C   pIC50    =          7.36
15  CCOC(=O)OC[C@H]1O[C@@H](Oc2nn(C(C)C)c(C)c2Cc2ccc(OC(C)C)cc2)[C@H](O)[C@@H](O)[C@@H]1O [REMOGLIFLOZIN ETABONATE]   pIC50    =          5.60

FYI, the data here is from ChEMBL document CHEMBL4715919.
